Would you mind telling me the reported FACS-Seq fitted mean (log10) of each entry?
B1: library; a variant is named by its letters at N, in order (parent)
chain: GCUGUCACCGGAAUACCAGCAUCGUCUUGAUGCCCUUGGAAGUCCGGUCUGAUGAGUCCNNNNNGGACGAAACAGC

- Variants of: B1
- assay-protocol: FACS-Seq fitted mean relative fluorescence mCherry/BFP without ligand (log10 relative fluorescence); higher = higher reporter protein expression
- measurement-parameters: HEK293T, ligand present: no
One number for each entry.

1. ACGCA 0.684

Parameter requested: FACS-Seq fitted mean (log10). Apply to each item below.
1. CAGUC
2. UAUGU

Result block:
1: 0.691; 2: 0.685
